Molecular target: human Class I PI3 kinase β (Homo sapiens (Human), UniProt P42338)
Sequence (P42338 whole entry, looked up, canonical isoform): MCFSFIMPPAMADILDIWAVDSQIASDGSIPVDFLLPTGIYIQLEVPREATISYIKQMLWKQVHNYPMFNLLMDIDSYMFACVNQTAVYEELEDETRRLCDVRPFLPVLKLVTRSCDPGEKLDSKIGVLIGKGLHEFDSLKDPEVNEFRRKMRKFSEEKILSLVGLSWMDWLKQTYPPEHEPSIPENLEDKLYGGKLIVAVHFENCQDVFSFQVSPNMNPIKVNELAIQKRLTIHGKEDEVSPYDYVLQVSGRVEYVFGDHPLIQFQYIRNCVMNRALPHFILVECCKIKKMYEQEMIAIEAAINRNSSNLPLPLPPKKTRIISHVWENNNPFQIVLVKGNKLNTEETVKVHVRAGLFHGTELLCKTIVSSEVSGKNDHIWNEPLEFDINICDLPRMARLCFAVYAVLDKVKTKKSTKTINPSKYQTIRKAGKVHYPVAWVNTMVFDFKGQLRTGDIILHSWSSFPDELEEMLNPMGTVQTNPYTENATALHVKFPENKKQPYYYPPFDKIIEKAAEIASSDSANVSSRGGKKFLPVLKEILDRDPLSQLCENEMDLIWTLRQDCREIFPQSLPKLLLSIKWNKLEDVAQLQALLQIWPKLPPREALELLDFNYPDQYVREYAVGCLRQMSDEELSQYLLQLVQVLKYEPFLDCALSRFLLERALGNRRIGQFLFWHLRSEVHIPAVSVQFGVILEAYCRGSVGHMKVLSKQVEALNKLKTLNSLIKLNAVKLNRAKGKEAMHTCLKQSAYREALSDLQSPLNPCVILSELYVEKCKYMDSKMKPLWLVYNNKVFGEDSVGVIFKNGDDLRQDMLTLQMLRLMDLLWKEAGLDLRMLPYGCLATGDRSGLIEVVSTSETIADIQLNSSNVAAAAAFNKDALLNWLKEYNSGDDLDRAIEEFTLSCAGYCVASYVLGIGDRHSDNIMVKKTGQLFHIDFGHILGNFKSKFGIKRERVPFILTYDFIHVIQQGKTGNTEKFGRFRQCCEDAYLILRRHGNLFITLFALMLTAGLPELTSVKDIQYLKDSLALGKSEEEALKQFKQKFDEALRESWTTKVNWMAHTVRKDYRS
Sequence (P27986 whole entry partner, looked up, canonical isoform): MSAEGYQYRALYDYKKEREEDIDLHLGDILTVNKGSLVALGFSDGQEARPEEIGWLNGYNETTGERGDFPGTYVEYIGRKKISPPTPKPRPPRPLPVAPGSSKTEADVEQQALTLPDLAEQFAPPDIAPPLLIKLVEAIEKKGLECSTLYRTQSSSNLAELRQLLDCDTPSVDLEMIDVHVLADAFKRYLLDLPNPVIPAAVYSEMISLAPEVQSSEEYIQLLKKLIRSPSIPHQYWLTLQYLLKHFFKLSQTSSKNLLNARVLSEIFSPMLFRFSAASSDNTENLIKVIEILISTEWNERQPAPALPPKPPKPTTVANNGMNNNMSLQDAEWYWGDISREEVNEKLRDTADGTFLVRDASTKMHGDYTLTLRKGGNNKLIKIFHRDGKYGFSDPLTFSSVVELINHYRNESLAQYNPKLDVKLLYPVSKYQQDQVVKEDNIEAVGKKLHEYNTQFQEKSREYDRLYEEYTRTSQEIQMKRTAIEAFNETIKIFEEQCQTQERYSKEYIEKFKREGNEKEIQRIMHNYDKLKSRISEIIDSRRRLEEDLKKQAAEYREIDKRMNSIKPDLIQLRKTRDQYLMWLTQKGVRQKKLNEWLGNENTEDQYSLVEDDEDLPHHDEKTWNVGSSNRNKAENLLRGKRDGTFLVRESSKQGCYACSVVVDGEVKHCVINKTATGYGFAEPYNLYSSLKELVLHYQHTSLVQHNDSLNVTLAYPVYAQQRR
Experiment: PI3-Kinase Promega ADP-Glo Max assay, β isoform
Conditions: 40 nM kinase, 3 mM ATP, 500 uM diC8-PtdInsP; read-out: Promega β PI3K IC50
pIC50: −log10 of the molar value.
Reported values of pIC50 for individual entries

mol	test.system	result
C[C@H](NC(=O)c1c(N)nn2cccnc12)c1nc2ccc(Cl)cc2c(=O)n1-c1ccccc1	human Class I PI3 kinase β (Homo sapiens (Human), UniProt P42338)	5.00 to 6.00
C[C@H](NC(=O)c1c(N)nn2cccnc12)c1cc2cccc(Cl)c2c(=O)n1C1CCC1	human Class I PI3 kinase β (Homo sapiens (Human), UniProt P42338)	6.00 to 6.30
C[C@H](NC(=O)c1c(N)nn2cccnc12)c1cc2cccc(Cl)c2c(=O)n1CCc1nnn[nH]1	human Class I PI3 kinase β (Homo sapiens (Human), UniProt P42338)	5.00 to 6.00

molecule `CC(C)C(=O)Cc1cccc2cc([C@H](C)NC(=O)c3c(N)nn4cccnc34)n(-c3ccccc3)c(=O)c12` , pIC50 observed: 5.00 to 6.00

The molecule listed as `C#CCCn1c([C@H](C)NC(=O)c2c(N)nn3cccnc23)cc2cccc(Cl)c2c1=O` has a reported pIC50 of 6.00 to 6.30

Query `Cc1ccccc1-n1c([C@H](C)NC(=O)c2c(N)nn3cccnc23)cc2cccc(Cl)c2c1=O` yields pIC50 of 6.30 to 7.00
